Reference source for all entries: ChEMBL document CHEMBL6083208

Some molecules, each annotated with its measured inhibition at 2 µM.
- Tested on: BaF3
- assay-name: Antiproliferative activity against mouse BaF3 cells harbouring Bcr-Abl T315I assessed of cell viability at 2 uM incubated for 72 hrs by Celltiter-glo luminescent cell viability assay relative to control
- Assay type: functional
Respond with the bare value in %.

Past entries and their recorded results:
CC(=O)Nc1cc(-c2ccc(C(=O)N[C@@H](COC(C)(C)C)C(=O)Nc3ccc(Cl)c(C(F)(F)F)c3)cc2)ccn1 7.66
CC(C)(C)OC[C@H](NC(=O)c1ccc(-c2ccnc(C(=O)NC3CC3)c2)cc1)C(=O)Nc1ccc(Cl)c(C(F)(F)F)c1 0
CC(C)(C)[C@H](NC(=O)c1cccc(-c2cncc(C(=O)NC3CC3)c2)c1)C(=O)Nc1ccc(Cl)c(C(F)(F)F)c1 7.2
CC(C)(C)[C@H](NC(=O)c1cccc(-c2ccc(NS(C)(=O)=O)nc2)c1)C(=O)Nc1ccc(Cl)c(C(F)(F)F)c1 10
CC(C)(C)OC[C@H](NC(=O)c1ccc(-c2ccnc(N)c2)cc1)C(=O)Nc1ccc(Cl)c(C(F)(F)F)c1 0.7
Nc1ccc(-c2cccc(C(=O)N[C@@H](CO)C(=O)Nc3ccc(Cl)c(C(F)(F)F)c3)c2)cn1 -0.03
CC(=O)Nc1ccc(-c2cccc(C(=O)N[C@@H](CO)C(=O)Nc3ccc(Cl)c(C(F)(F)F)c3)c2)cn1 -1.17
CC(C)(C)[C@H](NC(=O)c1ccc(-c2cncc(C(=O)NC3CC3)c2)cc1)C(=O)Nc1ccc(Cl)c(C(F)(F)F)c1 5.84

The molecule identified as CC(C)(C)C(=O)Nc1ccc(-c2cccc(C(=O)N[C@H](C(=O)Nc3ccc(Cl)c(C(F)(F)F)c3)C(C)(C)C)c2)cn1 registered its inhibition at 2 µM at 99.9

The molecule identified as CC(=O)Nc1cc(-c2ccc(C(=O)N[C@H](C(=O)Nc3ccc(Cl)c(C(F)(F)F)c3)C(C)(C)C)cc2)ccn1 registered its inhibition at 2 µM at 4.64

The molecule identified as CC(C)(C)[C@H](NC(=O)c1ccc(-c2ccnc(NS(C)(=O)=O)c2)cc1)C(=O)Nc1ccc(Cl)c(C(F)(F)F)c1 registered its inhibition at 2 µM at 8.95

The molecule identified as CC(=O)Nc1ccc(-c2cccc(C(=O)N[C@H](C(=O)Nc3ccc(Cl)c(C(F)(F)F)c3)C(C)(C)C)c2)cn1 registered its inhibition at 2 µM at 7.81
